assay: NCI Yeast Anticancer Drug Screen. Data for the rad18 strain (AID 177); settings: S. cerevisiae rad18 mutant growth inhibition; at 3.7 µM; active compounds read high
This is part of a sample that, as a whole, favours compounds with a hit. Of some 79,000 tested, about 15% had one in any assay.

- COMPOUND: "CC(=O)O[C@H]1C(=O)[C@@]2(C)[C@H]([C@H](OC(=O)c3ccccc3)[C@]3(O)C[C@H](OC(=O)[C@H](O)[C@@H](NC(=O)c4ccccc4)c4ccccc4)C(C)=C1C3(C)C)[C@]1(OC(C)=O)CO[C@@H]1C[C@@H]2O"
  UNIT OF MEASURE: "%"
  growth inhibition: -1
- COMPOUND: "Nc1nc(N)c2cc(Sc3ccc4ccccc4c3)ccc2n1"
  UNIT OF MEASURE: "%"
  growth inhibition: 27
- COMPOUND: "COc1ccc2oc(-c3ccc(Cl)cc3)c(N3CCN(C)CC3)c2c1"
  UNIT OF MEASURE: "%"
  growth inhibition: 4
- COMPOUND: "ClCCn1c(CCl)nc2ccc(Cl)cc21"
  UNIT OF MEASURE: "%"
  growth inhibition: -14
- COMPOUND: "O=c1[nH]c2ccccc2c2nc3ccccc3n12"
  UNIT OF MEASURE: "%"
  growth inhibition: -22
- COMPOUND: "O=C1C=CC(=Nc2ccccc2)c2ccccc21"
  UNIT OF MEASURE: "%"
  growth inhibition: 6
- COMPOUND: "[Pt].c1ccc(P(CCP(c2ccccc2)c2ccccc2)CCP(c2ccccc2)c2ccccc2)cc1"
  UNIT OF MEASURE: "%"
  growth inhibition: 6
- COMPOUND: "Cc1nc2c(ncn2CCO)c(=O)[nH]1"
  UNIT OF MEASURE: "%"
  growth inhibition: -32
- COMPOUND: "COC(=O)c1cccc(C)c1C(=O)c1c(C)cc(C)cc1C"
  UNIT OF MEASURE: "%"
  growth inhibition: 7
- COMPOUND: "CN(C)Cc1cccc(CN(C)C)[c]1[Sn]([Br])([c]1ccccc1)[c]1ccccc1"
  UNIT OF MEASURE: "%"
  growth inhibition: 67
- COMPOUND: "O=S1(=O)c2ccccc2N=C(c2ccccc2Cl)CC1c1ccc(F)cc1 (configuration not stated)"
  UNIT OF MEASURE: "%"
  growth inhibition: 2
- COMPOUND: "CC(C)c1cccc(O)c(=O)c1"
  UNIT OF MEASURE: "%"
  growth inhibition: 1
